Target: canine TRPM8 (Canis lupus familiaris)
Construct: expressed in transfected cells
Assay: In Vitro Canine TRPM8 Functional Assay (intracellular Ca2+ fluorescence, icilin activation, HEK293 cells)
Format: cell-based
Conditions: HEK293, 0.2 μM test compound; individually measured values; read-out: % Inh (%) @0.2 μM, in vitro TRP M8 Activity
Experimental: The changes in fluorescent signal were monitored by a fluorescence plate reader, either a FLIPR™ (Molecular Devices) or FDSS (Hamamatsu). […] Cells were maintained in 5% CO2 at 37° C. […] Maximal fluorescence intensity (FI) achieved upon addition of icilin was exported from the FLIPR™ or FDSS software and further analyzed using GraphPad Prism 3.02 (Graph Pad Software Inc., CA, U.S.A.). […] Finally, IC50 values were calculated with the best-fit curve determined by GraphPad Prism
Structures can show the parent of a compound that is named as a salt.
READOUT_KIND: inhibition at 0.2 µM (%)

Record excerpt, results attached:
compound="Cc1nc(C(C)(C)C)oc1-c1nc2cc(-c3ccccc3Cl)cc(Cl)c2[nH]1 [Compound 181, hydrochloride]" readout_kind="inhibition at 0.2 µM" unit_descriptor=% val=15
compound="Cn1nc(C(C)(C)C)c(C(F)(F)F)c1-c1nc2cc(-c3ccccc3F)cc(C(F)(F)F)c2[nH]1 [Compound 185, sodium salt]" readout_kind="inhibition at 0.2 µM" unit_descriptor=% val=99
compound="Cn1nc(C(C)(C)C)c(Cl)c1-c1nc2cc(-c3ccccc3Cl)cc(C(F)(F)F)c2[nH]1 [Compound 128, sodium salt]" readout_kind="inhibition at 0.2 µM" unit_descriptor=% val=99
compound="CC(C)c1cc(-c2nc3cc(-c4cccc(C(F)(F)F)c4)ccc3[nH]2)on1 [Compound 7, sodium salt]" readout_kind="inhibition at 0.2 µM" unit_descriptor=% val=10
compound="CC(C)(C)c1cc(-c2nc3cc(-c4ccccc4Cl)cc(C(F)(F)F)c3[nH]2)on1 [Compound 141, hydrochloride]" readout_kind="inhibition at 0.2 µM" unit_descriptor=% val=99

I = Cn1nc(C(C)(C)C)c(C#N)c1-c1nc2cc(-c3ccccc3F)cc(Cl)c2[nH]1 [Compound 167, sodium salt]
II = Cc1oc(C(C)(C)C)nc1-c1nc2cc(-c3ccccc3C(F)(F)F)cc(Cl)c2[nH]1 [Compound 165, hydrochloride]
(Q) Param metric = inhibition at 0.2 µM; output whichever of I , II has the minimum value. When you have decided, please share the label of that item.
(A) II
(II: 27%, I: 100%)

====

As shown below, each of these compounds has a reported inhibition at 0.2 µM value.
Biological target: canine TRPM8 (Canis lupus familiaris, UniProt Q1A7N1)
Construct: expressed in transfected cells
Sequence (Q1A7N1 1-1104): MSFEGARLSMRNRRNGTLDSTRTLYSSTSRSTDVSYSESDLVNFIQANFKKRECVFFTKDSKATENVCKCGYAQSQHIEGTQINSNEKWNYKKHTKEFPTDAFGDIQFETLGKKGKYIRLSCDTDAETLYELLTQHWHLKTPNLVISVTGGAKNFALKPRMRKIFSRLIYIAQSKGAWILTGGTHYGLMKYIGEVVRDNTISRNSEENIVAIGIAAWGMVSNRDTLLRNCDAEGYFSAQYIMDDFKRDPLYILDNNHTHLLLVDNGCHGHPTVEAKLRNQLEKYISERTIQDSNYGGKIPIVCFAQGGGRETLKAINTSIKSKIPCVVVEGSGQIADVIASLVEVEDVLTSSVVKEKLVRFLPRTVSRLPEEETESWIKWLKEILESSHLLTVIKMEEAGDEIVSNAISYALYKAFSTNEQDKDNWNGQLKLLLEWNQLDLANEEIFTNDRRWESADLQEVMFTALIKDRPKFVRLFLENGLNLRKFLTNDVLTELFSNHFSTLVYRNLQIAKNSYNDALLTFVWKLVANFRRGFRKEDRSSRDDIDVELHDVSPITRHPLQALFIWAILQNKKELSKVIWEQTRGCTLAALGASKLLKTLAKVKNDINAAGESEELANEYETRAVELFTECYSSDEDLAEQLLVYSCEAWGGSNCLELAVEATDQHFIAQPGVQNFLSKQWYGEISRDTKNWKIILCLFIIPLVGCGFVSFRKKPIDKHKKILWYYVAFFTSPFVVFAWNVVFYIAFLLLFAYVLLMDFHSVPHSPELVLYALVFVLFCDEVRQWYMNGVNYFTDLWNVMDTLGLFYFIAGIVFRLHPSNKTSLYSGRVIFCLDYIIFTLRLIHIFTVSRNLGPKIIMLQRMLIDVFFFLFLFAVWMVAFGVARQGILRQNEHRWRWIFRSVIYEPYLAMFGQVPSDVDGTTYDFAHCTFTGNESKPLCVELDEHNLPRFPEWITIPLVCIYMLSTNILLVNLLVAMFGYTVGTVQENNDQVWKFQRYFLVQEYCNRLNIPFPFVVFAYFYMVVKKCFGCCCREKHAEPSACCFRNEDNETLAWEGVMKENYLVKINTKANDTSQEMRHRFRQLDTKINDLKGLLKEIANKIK
Assay: In Vitro Canine TRPM8 Functional Assay (intracellular Ca2+ fluorescence, icilin activation, HEK293 cells)
Type: cell-based
Details: HEK293, read-out: % Inh (%) @0.2 μM, in vitro TRP M8 Activity, 0.2 μM test compound; individually measured values
Structures can show the parent of a compound that is named as a salt.
Write down the numeric answer in % and omit the unit.

Use these answered entries as a reference point.
compound="Cn1nc(C(C)(C)C)c(C#N)c1-c1nc2cc(-c3ccccc3OC(F)(F)F)cc(C(F)(F)F)c2[nH]1.[Na] [Compound 150, sodium salt]" val=100
compound="CC(C)(C)c1cc(-c2nc3cc(-c4c(F)cccc4OC(F)(F)F)cc(C(F)(F)F)c3[nH]2)on1 [Compound 145, sodium salt]" val=100

Now let's try a different one.
Cn1nc(C(C)(C)C)c(C#N)c1-c1nc2cc(-c3ccccc3C(F)(F)F)cc(C(F)(F)F)c2[nH]1.[Na] [Compound 149, sodium salt] has a reported inhibition at 0.2 µM of 100
